# Tested on: velvetleaf
# method summary: Test A postemergence
# Assay type: in vivo, Abutilon theophrasti
# conditions used: 500 g ai/ha, 0 to 100 scale, 0 no effect, 100 complete control
readout type: Plant response rating, Velvetleaf
A bare number is all that is needed in reply.

Ask | Note Plant response rating, Velvetleaf for the molecule shown: FC(F)(F)c1ccn(-c2ccccc2Sc2ncc(Cl)cn2)n1
Reply | 30

Ask | Note Plant response rating, Velvetleaf for the molecule shown: Clc1cnc(Oc2ccccc2-n2cc(Br)c(Br)n2)nc1
Reply | 60

Ask | Note Plant response rating, Velvetleaf for the molecule shown: N#Cc1cccc(Oc2ncc(I)cn2)c1-n1cc(Br)cn1
Reply | 100

Each recorded value in this set is attributed to patent US9695155B2.
